# assay.system: L-type calcium channel (Rattus norvegicus, UniProt P22002)
# Construct: membrane fragments of rat cardiac muscle; from tissue; host or cells: rat cardiac muscle membranes
# Sequence (P22002 whole entry, other chains not shown, the tested form may be a part): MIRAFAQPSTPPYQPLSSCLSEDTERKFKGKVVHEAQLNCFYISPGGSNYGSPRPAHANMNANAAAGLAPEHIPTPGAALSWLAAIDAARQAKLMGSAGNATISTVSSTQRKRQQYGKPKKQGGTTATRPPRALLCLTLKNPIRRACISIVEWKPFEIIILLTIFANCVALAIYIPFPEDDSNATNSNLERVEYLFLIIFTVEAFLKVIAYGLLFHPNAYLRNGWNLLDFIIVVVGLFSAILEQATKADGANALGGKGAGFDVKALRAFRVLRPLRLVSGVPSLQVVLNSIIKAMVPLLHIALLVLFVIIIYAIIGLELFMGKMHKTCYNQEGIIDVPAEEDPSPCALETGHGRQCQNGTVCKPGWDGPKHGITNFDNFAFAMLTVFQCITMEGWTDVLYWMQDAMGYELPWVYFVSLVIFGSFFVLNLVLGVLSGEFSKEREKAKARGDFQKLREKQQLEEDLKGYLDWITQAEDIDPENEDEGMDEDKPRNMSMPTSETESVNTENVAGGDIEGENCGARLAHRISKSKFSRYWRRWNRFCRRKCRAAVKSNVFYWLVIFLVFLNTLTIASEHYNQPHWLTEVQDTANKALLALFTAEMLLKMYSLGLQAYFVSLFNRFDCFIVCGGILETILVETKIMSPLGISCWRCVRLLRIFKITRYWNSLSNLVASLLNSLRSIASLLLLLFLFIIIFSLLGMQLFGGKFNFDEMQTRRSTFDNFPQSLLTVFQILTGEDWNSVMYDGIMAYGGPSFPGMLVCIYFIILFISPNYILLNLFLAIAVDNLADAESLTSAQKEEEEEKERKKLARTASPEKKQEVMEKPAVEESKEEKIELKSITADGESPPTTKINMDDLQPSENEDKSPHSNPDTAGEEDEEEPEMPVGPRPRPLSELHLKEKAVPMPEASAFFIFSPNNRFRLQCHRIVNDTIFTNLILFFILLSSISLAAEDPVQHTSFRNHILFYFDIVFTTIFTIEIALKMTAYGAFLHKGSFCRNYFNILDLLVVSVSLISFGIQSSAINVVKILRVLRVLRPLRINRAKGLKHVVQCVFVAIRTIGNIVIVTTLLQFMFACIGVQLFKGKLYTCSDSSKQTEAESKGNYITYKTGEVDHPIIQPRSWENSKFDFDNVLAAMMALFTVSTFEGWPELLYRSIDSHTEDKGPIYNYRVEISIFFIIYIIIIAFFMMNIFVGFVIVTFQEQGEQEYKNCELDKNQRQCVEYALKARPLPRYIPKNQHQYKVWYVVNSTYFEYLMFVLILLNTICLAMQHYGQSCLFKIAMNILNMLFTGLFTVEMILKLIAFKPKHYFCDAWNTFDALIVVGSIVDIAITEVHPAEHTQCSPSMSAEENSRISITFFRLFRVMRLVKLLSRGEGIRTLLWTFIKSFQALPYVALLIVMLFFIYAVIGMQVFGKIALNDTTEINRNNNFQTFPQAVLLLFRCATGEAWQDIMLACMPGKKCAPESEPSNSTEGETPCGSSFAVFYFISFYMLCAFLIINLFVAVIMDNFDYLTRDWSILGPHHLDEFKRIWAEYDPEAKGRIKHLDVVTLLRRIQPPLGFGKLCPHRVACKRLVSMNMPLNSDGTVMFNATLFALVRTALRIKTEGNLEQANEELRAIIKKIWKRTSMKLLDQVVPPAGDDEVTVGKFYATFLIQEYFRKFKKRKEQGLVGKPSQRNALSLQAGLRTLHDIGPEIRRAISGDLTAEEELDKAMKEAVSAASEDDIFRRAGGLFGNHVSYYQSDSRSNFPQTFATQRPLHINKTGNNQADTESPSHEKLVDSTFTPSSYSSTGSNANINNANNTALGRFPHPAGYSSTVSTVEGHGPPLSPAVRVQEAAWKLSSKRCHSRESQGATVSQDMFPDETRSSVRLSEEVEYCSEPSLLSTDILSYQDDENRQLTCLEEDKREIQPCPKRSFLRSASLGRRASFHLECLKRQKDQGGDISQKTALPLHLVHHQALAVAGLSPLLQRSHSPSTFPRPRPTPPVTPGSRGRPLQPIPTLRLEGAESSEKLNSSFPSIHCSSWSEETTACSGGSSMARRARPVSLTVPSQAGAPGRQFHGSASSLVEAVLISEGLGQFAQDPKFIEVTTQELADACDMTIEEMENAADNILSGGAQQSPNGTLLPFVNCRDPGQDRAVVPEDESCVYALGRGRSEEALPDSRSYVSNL
# Sequence (P54290 25-944 partner limits assumed, other chains not shown): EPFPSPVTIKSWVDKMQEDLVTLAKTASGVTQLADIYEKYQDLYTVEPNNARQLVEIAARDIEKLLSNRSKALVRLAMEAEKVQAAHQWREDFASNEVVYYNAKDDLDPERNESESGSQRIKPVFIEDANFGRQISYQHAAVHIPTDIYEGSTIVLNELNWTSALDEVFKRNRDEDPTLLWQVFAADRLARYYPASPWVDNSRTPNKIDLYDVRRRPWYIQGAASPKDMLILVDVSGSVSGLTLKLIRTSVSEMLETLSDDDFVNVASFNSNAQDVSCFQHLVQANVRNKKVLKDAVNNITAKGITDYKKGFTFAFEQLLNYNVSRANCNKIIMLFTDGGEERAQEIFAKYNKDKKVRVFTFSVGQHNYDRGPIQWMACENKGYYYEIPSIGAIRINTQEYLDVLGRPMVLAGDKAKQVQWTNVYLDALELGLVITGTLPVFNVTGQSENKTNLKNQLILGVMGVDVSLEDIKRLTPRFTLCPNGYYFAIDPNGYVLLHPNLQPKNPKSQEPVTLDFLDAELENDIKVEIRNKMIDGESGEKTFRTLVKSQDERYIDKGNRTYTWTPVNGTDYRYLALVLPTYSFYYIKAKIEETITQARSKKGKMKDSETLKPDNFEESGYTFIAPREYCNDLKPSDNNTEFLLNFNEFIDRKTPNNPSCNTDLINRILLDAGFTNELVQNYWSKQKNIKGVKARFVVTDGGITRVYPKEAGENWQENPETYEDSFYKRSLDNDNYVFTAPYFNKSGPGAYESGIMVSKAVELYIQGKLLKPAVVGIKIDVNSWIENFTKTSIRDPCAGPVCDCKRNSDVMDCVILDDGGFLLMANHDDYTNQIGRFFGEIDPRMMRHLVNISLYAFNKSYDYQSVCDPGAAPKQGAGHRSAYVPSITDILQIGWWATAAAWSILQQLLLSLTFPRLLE
# Sequence (P54290 945-1091 partner limits assumed, other chains not shown): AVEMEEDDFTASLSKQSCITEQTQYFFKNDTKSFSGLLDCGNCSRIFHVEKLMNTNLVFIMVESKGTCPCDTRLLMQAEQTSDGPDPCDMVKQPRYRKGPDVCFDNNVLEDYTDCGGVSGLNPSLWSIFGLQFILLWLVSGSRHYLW
# run.description: Competition binding of [3H]nitrendipine to membrane fragments of rat cardiac muscle
# test.parameters: [3H]nitrendipine, rat cardiac muscle membranes; mean; read-out: PKi Ca (converted)
quantity.name: Ki

>>> df
                                   compound  quantity_name    value
0  CCC1=C(C(=O)NC)C(c2ccc([N+](=O)[O-])cc2)C(C(=O)NCCCN2CCC(c3ccccc3)(c3ccccc3)CC2)=C(COCCN=[N+]=[N-])N1 (stereo not drawn)             Ki  15.1 µM
1  CC1=C(C(N)=O)C(c2ccc([N+](=O)[O-])cc2)C(C(=O)NCCCN2CCC(c3ccccc3)CC2)=C(COCCN=[N+]=[N-])N1 (stereo not drawn)             Ki     1 µM
2  CCC1=C(C(N)=O)C(c2ccc([N+](=O)[O-])cc2)C(C(=O)NCCCN2CCC(C(=O)OC)(c3ccccc3)CC2)=C(COCCN)N1 (stereo not drawn)             Ki   398 µM

----------
# assay.system: α2C receptor (Homo sapiens, UniProt P18825)
# Construct: host or cells: LM(tk-) cells, line L-α2C
# Sequence (P18825 whole entry): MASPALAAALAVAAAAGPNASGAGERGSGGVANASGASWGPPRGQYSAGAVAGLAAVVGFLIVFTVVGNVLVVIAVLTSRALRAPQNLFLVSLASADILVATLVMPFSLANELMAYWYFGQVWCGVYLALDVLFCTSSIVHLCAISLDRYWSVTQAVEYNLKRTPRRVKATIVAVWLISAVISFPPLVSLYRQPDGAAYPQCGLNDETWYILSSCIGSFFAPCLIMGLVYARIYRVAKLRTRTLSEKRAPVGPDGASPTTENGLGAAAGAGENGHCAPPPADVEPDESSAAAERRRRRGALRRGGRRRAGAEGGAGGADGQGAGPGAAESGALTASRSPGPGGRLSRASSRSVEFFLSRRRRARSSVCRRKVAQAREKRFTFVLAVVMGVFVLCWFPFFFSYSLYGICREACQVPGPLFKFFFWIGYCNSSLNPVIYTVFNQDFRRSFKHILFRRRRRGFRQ
# run.description: Competition binding, [3H]rauwolscine, human α2C receptor
# test.parameters: pKi alpha-2 2c
Structures can show the parent of a compound that is named as a salt.
Flag rule - Ki less than 400 nM flags Condition met; the remaining entries get Condition not met.

compound	assay.system	label.class
CCC1=C(C(=O)NCCCN2CCC(c3ccccc3)(c3ccccc3)CC2)C(c2ccc([N+](=O)[O-])cc2)C(C(=O)OC)=C(C)N1 (stereo not shown) [Example 73]	α2C receptor (Homo sapiens, UniProt P18825)	Condition met
COC(=O)C1=C(C)NC(C)=C(C(=O)NCCCN2CCC(c3ccccc3)(c3ccccc3)CC2)C1c1ccncc1 (stereo not shown) [Example 5]	α2C receptor (Homo sapiens, UniProt P18825)	Condition not met
COC(=O)C1=C(C)NC(C)=C(C(=O)NCCCN2CCC(c3ccccc3)(c3ccccc3)CC2)C1c1ccc(Br)cc1 (stereo not shown) [Example 15]	α2C receptor (Homo sapiens, UniProt P18825)	Condition not met
COC(=O)C1=C(C)NC(C)=C(C(=O)NCCCN2CCC(c3ccccc3)(c3ccccc3)CC2)C1c1ccc(C)cc1 (stereo not shown) [Example 19]	α2C receptor (Homo sapiens, UniProt P18825)	Condition not met
COC(=O)C1=C(C)NC(C)=C(C(=O)NCCCN2CCC(c3ccccc3)(c3ccccc3)CC2)C1c1ccc(Cl)c([N+](=O)[O-])c1 (stereo not shown) [Example 16]	α2C receptor (Homo sapiens, UniProt P18825)	Condition met
COC(=O)C1=C(C)NC(C)=C(C(=O)NCCCN2CCC(c3ccccc3)(c3ccccc3)CC2)C1c1ccc2c(c1)OCO2 (stereo not shown) [Example 11]	α2C receptor (Homo sapiens, UniProt P18825)	Condition not met
COC(=O)C1=C(C)N(C)C(C)=C(C(=O)OCCCN2CCC(c3ccccc3)(c3ccccc3)CC2)C1c1ccc([N+](=O)[O-])cc1 (stereo not shown) [Example 92, hydrochloride hydrate]	α2C receptor (Homo sapiens, UniProt P18825)	Condition not met

----------
# assay.system: L-type calcium channel (Rattus norvegicus, UniProt P22002)
# Construct: membrane fragments of rat cardiac muscle; from tissue; host or cells: rat cardiac muscle membranes
# run.description: Competition binding of [3H]nitrendipine to membrane fragments of rat cardiac muscle
# test.parameters: [3H]nitrendipine, rat cardiac muscle membranes; mean; read-out: PKi Ca (converted)
quantity.name: Ki

>>> df
                                   compound   value
0  CCC1=C(C(N)=O)C(c2ccc([N+](=O)[O-])cc2)C(C(=O)NCCCN2CCC(C(=O)OC)(c3ccccc3)CC2)=C(CCCCN)N1 (stereo not drawn)  132 µM
1  CCC1=C(C(=O)O)C(c2ccc([N+](=O)[O-])cc2)C(C(=O)NCCCN2CCC(c3ccccc3)(c3ccccc3)CC2)=C(COCCN)N1 (stereo not drawn)  575 µM
2  CCC1=C(C(=O)OCCC#N)C(c2ccc([N+](=O)[O-])cc2)C(C(=O)NCCCN2CCC(C#N)(c3ccccc3)CC2)=C(COC)N1 (stereo not drawn)  437 µM
